TEST SYSTEM: human recombinant FKBP12 (Homo sapiens)
ASSAY INFO: Test 1: immunophilin FKBP12 rotamase (peptidylprolyl isomerase) inhibiting activity
CONDITION SET: 12 nM human recombinant FKBP12, substrate succinyl-Ala-Phe-Pro-Phe-paranitroanilide 48 μM, 4° C.; read-out: PKBP12 rotamase inhibiting activity IC50
QUANTITY KIND: IC50 (nM)

CC1(C)CC(C)(C)CC(O)(C(F)(F)C(=O)N2CCC[C@H]2c2cc(COc3ccncc3)on2)C1
79
COc1ccc(OCc2nnc([C@@H]3CCCN3C(=O)C(F)(F)C3(O)CC(C)(C)CC(C)(C)C3)o2)cn1
389
COc1ccc(OCc2cc([C@@H]3CCCN3C(=O)C(F)(F)C3(O)CC(C)(C)CC(C)(C)C3)no2)cn1
150

I = CC1(C)CC(C)(C)CC(O)(C(F)(F)C(=O)N2CCC[C@H]2c2cc(CNS(=O)(=O)c3ccccc3)on2)C1
II = CC1(C)CC(C)(C)CC(O)(C(F)(F)C(=O)N2CCC[C@H]2c2cc(CCc3cccnc3)on2)C1
III = CC1(C)CC(C)(C)CC(O)(C(F)(F)C(=O)N2CCC[C@H]2c2cc(COc3ccccc3)on2)C1
Request: # rank_down: sort by IC50, max first # output: labels, in the requested order
Response: III, I, II
(III: 204 nM, I: 101 nM, II: 45 nM)

---

TEST SYSTEM: human recombinant FKBP12 (Homo sapiens)
Construct: purchased Sigma F-5398
ASSAY INFO: Test 1: immunophilin FKBP12 rotamase (peptidylprolyl isomerase) inhibiting activity
Type: biochemical
CONDITION SET: 12 nM human recombinant FKBP12, substrate succinyl-Ala-Phe-Pro-Phe-paranitroanilide 48 μM, 4° C.; read-out: PKBP12 rotamase inhibiting activity IC50
QUANTITY KIND: IC50 (nM)

CC1(C)CC(C)(C)CC(O)(C(F)(F)C(=O)N2CCC[C@H]2c2cc(CN3CCOCC3)on2)C1
254
CC1(C)CC(C)(C)CC(O)(C(F)(F)C(=O)N2CCC[C@H]2c2nnc(COc3ccc4cc[nH]c4c3)o2)C1
259
CC1(C)CC(C)(C)CC(O)(C(F)(F)C(=O)N2CCC[C@H]2c2cc(COc3cccc(F)c3)on2)C1
182
CC1(C)CC(C)(C)CC(O)(C(F)(F)C(=O)N2CCC[C@H]2c2cc(COc3cnccn3)on2)C1
228

---

TEST SYSTEM: human recombinant FKBP12 (Homo sapiens, UniProt P62942)
Construct: purchased Sigma F-5398
Sequence (P62942 whole entry): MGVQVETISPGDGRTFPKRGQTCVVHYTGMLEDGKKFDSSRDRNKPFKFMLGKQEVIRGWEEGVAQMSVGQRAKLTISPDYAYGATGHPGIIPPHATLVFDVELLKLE
ASSAY INFO: Test 1: immunophilin FKBP12 rotamase (peptidylprolyl isomerase) inhibiting activity
Type: biochemical
CONDITION SET: 12 nM human recombinant FKBP12, substrate succinyl-Ala-Phe-Pro-Phe-paranitroanilide 48 μM, 4° C.; read-out: PKBP12 rotamase inhibiting activity IC50
QUANTITY KIND: IC50 (nM)

Recorded IC50, per entry:
CC1(C)CC(C)(C)CC(O)(C(F)(F)C(=O)N2CCC[C@H]2c2cc(COc3ccnnc3)on2)C1
86
CC1(C)CC(C)(C)CC(O)(C(F)(F)C(=O)N2CCC[C@H]2c2nnc(COc3ccccc3)o2)C1
62
COc1ccc(OCc2nnc([C@@H]3CCCN3C(=O)C(F)(F)C3(O)CC(C)(C)CC(C)(C)C3)o2)cc1OC
62
COc1ccc(CCc2nnc([C@@H]3CCCN3C(=O)C(F)(F)C3(O)CC(C)(C)CC(C)(C)C3)o2)cc1OC
270

P = COc1cc(OCc2cc([C@@H]3CCCN3C(=O)C(F)(F)C3(O)CC(C)(C)CC(C)(C)C3)no2)cc(OC)c1OC
Q = CC1(C)CC(C)(C)CC(O)(C(F)(F)C(=O)N2CCC[C@H]2c2nnc(COc3cccnc3)o2)C1
Request: Min IC50? P | Q Mark your answer with the label of the selected entry.
Response: P
(P: 64 nM, Q: 356 nM)

---

ASSAY INFO: Test 2: dissolution test in 1,3-butylene glycol/water/ethanol base
Type: physicochemical
CONDITION SET: 1,3-butylene glycol/water/ethanol base, organic solvent or mixture, thermodynamic from solid; base: 5 g 1,3-butylene glycol + 10 g water, ethanol to 100 mL; stirred at 25° C. for 7 days; HPLC
Description: (Test 2) Dissolution Test To 5 g of 1,3-butylene glycol, 10 g of water was added and the mixture was stirred until homogeneity; thereafter, ethanol was added to make a total volume of 100 mL, whereby a base was prepared.
QUANTITY KIND: solubility at 7 days (mg/mL)
Form entry: value (mg/mL) — number only.

Request: Look at this molecule and give its reported solubility at 7 days. COc1ccc(OCc2cc([C@@H]3CCCN3C(=O)C(F)(F)C3(O)CC(C)(C)CC(C)(C)C3)no2)cc1OC [Compound 1]
Response: 57.5

---

TEST SYSTEM: human recombinant FKBP12 (Homo sapiens, UniProt P62942)
ASSAY INFO: Test 1: immunophilin FKBP12 rotamase (peptidylprolyl isomerase) inhibiting activity
CONDITION SET: 12 nM human recombinant FKBP12, substrate succinyl-Ala-Phe-Pro-Phe-paranitroanilide 48 μM, 4° C.; read-out: PKBP12 rotamase inhibiting activity IC50
QUANTITY KIND: IC50 (nM)

CC1(C)CC(C)(C)CC(O)(C(F)(F)C(=O)N2CCC[C@H]2c2nnc(COc3ccc4c(c3)OCO4)o2)C1
165
CC1(C)CC(C)(C)CC(O)(C(F)(F)C(=O)N2CCC[C@H]2c2cc(CNC(=O)c3ccccc3)on2)C1
166
CC1(C)CC(C)(C)CC(O)(C(F)(F)C(=O)N2CCC[C@H]2c2cc(COc3cccnn3)on2)C1
328

P = CC1(C)CC(C)(C)CC(O)(C(F)(F)C(=O)N2CCC[C@H]2c2cc(COc3ccccn3)on2)C1
Q = COc1ccc(Cc2nnc([C@@H]3CCCN3C(=O)C(F)(F)C3(O)CC(C)(C)CC(C)(C)C3)o2)cc1OC
R = CC1(C)CC(C)(C)CC(O)(C(F)(F)C(=O)N2CCC[C@H]2c2cc(COc3cccnc3)on2)C1
Request: Would you mind ranking these compounds by ascending IC50? Please list the labels according to the requested order.
Response: R, Q, P
(R: 83 nM, Q: 142 nM, P: 290 nM)

---

TEST SYSTEM: human recombinant FKBP12 (Homo sapiens, UniProt P62942)
ASSAY INFO: Test 1: immunophilin FKBP12 rotamase (peptidylprolyl isomerase) inhibiting activity
CONDITION SET: 12 nM human recombinant FKBP12, substrate succinyl-Ala-Phe-Pro-Phe-paranitroanilide 48 μM, 4° C.; read-out: PKBP12 rotamase inhibiting activity IC50
Text: (Test 1) Test for Measuring Immunophilin FKBP12 Rotamase Activity […]
pIC50: −log10 of the molar value.
QUANTITY KIND: pIC50

Guide cases for pIC50, answers given:
COc1ccc(OCc2cc([C@@H]3CCCN3S(=O)(=O)CC3CCCCC3)no2)cc1OC
6.83
CC1(C)CC(C)(C)CC(O)(C(F)(F)C(=O)N2CCC[C@H]2c2cc(COc3ccncn3)on2)C1
6.73

1 = CC1(C)CC(C)(C)CC(O)(C(F)(F)C(=O)N2CCC[C@H]2c2cc(Cn3ccccc3=O)on2)C1
2 = COc1ccc(OCc2nnc([C@@H]3CCCN3C(=O)C(F)(F)C3(O)CC(C)(C)CC(C)(C)C3)s2)cc1OC
Request: Of 1 and 2 , whose reported pIC50 is numerically smaller? Your choice should be expressed through its label.
Response: 1

---

TEST SYSTEM: human recombinant FKBP12 (Homo sapiens, UniProt P62942)
ASSAY INFO: Test 1: immunophilin FKBP12 rotamase (peptidylprolyl isomerase) inhibiting activity
CONDITION SET: 12 nM human recombinant FKBP12, substrate succinyl-Ala-Phe-Pro-Phe-paranitroanilide 48 μM, 4° C.; read-out: PKBP12 rotamase inhibiting activity IC50
QUANTITY KIND: IC50 (nM)

Use these answered entries as a reference point.
COc1ccc(C(=O)NCc2cc([C@@H]3CCCN3C(=O)C(F)(F)C3(O)CC(C)(C)CC(C)(C)C3)no2)cc1OC [Compound 50]
117
COc1ccc(OCc2nnc([C@@H]3CCCN3C(=O)C(F)(F)C3(O)CC(C)(C)CC(C)(C)C3)o2)cc1 [Compound 24]
218
COc1ccc(OCc2nc([C@@H]3CCCN3C(=O)C(F)(F)C3(O)CC(C)(C)CC(C)(C)C3)nn2C)cc1OC [Compound 8]
189

a = CC1(C)CC(C)(C)CC(O)(C(F)(F)C(=O)N2CCC[C@H]2c2cc(Cn3cnccc3=O)on2)C1 [Compound 62]
b = CN(C)Cc1cc([C@@H]2CCCN2C(=O)C(F)(F)C2(O)CC(C)(C)CC(C)(C)C2)no1 [Compound 46]
Request: Lab note: record which item had the higher IC50, a or b . Pick one; state its label.
Response: b
(b: 310 nM, a: 210 nM)
